experiment: soluble on expression in E. coli; label from the status in PepcDB or PDB records
parameter measured: soluble on expression in E. coli

MGSDKIHHHHHHMKFFSAPSPATRPPMRNRLPPLNPLRAFEAAARCGTVSAAADELHVTASAVSHQIRILESTLGVALFVRSKARVKLTPEGEALLEPVGAAFDMIANATVRLDSPAAAGDLVVSTPLSLTSRWLARHIGDFLERYPGIHLKVIPSNDDRETYSPDVDVCIRYGEGNWRNRRVELLAHPALFPVVSPALMNGPDAIRKVQDLAGRTLFCEHAGSWMRWLAEANADKLPGIRILEIGNAHIGVEAAVHGQGVALGDSLSVRDDLLDGTLVRPFSAAVPSRHAYYLVTRHELADSPLVTAFTTWLRACLA; not soluble
MSLHNNIDAFTLKPRHVEQIRQALPEVAITVSASDSDFMDRLPDAEYALVWVFKPEWYATAPRLKALFTPAAGRDWVAADPSGRVMTCHGSFHGRIMRESLLSMMLYFNRRLGQSLEDQGRRMWGRPDYSGCVGLFSQRVMIVGLGALGQSMAELLKAFGAHVTGVKRNPESFAGSPCVDRVISFDALEEALPEADHVVLLLPGGTATDGIFTARHFNAMRPGAYLYNLGRGNCYREEDLVAALEDGRLAGAGLDVFAEEPLPASSPLWEQRNVLITPHSSAISREYLDLFIQEWLETLRKGAPQNEGHHHHHH; not soluble

###

experiment: soluble on expression in E. coli; label from the status in PepcDB or PDB records
parameter measured: soluble on expression in E. coli

Some sequences with known soluble on expression in E. coli results, for comparison:
MKNNADYIEMKVPAQPEYVGIIRLTLSGVASRMGYTYDEIEDLKIAVSEACTNAVQHAYKEDKNGEVSIRFGVFEDRLEVIVADEGDSFDFDQKQQDLGPYTPSHTVDQLSEGGLGLYLMETLMDEVRVQNHSGVTVAMTKYLNGERVDHDTTIKNYETN; soluble
MSGVKIAFIRHHDLWIKVDGKEKQLTKGEYITGPKWSYDGEWLAYVKGEKQNTLELYRLKDGKKVTPFHSEVSNYQWSPTENIIAFIFTGTLHTFKVEKKNADFENVSAGVGDYAWYPNGKKFLVSSEAHLLPTGWTGAQLYEVQKDAHMNPHKMKHLYALPNEHDDFLALVASGFQWSPDQKWISFLAVPTASWSADSNTLCLVRADGSRFEKVDQMLLNTQWFKWAPANNILAYIEGSGRVALENKHLKVKELPALQQNTFTPKGYVDWDFTWKNDNVIIVSRAKEAGIETPPEKRPLPSLYEIDSTSDEQHRITKPPHRQGDYHPLFMNKSNQLIWIRSDRKKADVWLAHKDGKHEMKWIENIDVPLEHHHHHH; not soluble
MGSDKIHHHHHHMSRITDYGFLFQTTFGTSKTNLVNNIQLSQMNSSSVQKQLKAAGIDTNSKKYKAALSEMMKNGNGAMFTNVQAIKNLMSQYDKNGDWIDPNTGLTGLAVTDENRNSYKHIISIPESSREEMFELAKKEFLNENGTLNGDTTKRESVYNNLYRKMDKDDRLSAGWTMEQYEHQYRQAFAEAAKAADPTWKAGKPIPAGALDGITRESVESGKKSVDIKI; not soluble
MPTTVNDLLRTYPADLGGVDREAMARCIEECLRCAQACTACADACLSEPTVADLTKCIRTDMDCADVCTATAAVLSRHTGYDANVTRAVLQACATVCAACGDECARHAGMHEHCRVCAEACRSCEQACQELLAGLGLEHHHHHH; not soluble
MPDDEKIKLRYSPEESARLIKEEARRLGFSACGFAEAQALPPSVVGTYEKFLSEGRHGEMDYLERNRELRYSPAELLPGTRTVISVALNYYPKIKQPASAPQIAYYAYGKDYHKVVKRLLDKLLDYIRREVCPSVSGRSFSDSAPIAERYWACRAGIGWVGRSGMLILPRGGTFFFLGELLVDIDLPPDAPMPSRCGACRNCIESCPTGAISEEGMDSRLCVSYLTIEHEGEIPPELVGKLGNRFYGCDSCQLCCPWNRYAHPSEVEAFVPREALFTFDRDDLVSLDEEKYLHFFAGSPMKRAGLDGLRRNARALEQGDKKEDEQPTDEDG; not soluble

Note to self: soluble on expression in E. coli recorded for SEEDAGNGGFRKRMRASDEEGKGDSRDGISLDHTIENEEAETKLVASDEMELSIAQILDKIESFTQTVSNLLETGKTMLKELSNEFEERLIMIHKEHVEKWQDEIKELRLLDASNEETTSLLHNARYLIQNPSIEQ was soluble

GSGAVTAGAAPRILKHQVVRAELDRMLDGMRIGDPFPAEREIAEQFEVARETVRQALRELLIDGRVERRGRTTVVARPKIRQPLGMGSYTEAAKAQGLSAGRILVAWSDLTADEVLAGVLGVDVGAPVLQLERVLTTDGVRVGLETTKLPAQRYPGLRETFDHEASLYAEIRSRGIAFTRTVDTIDTALPDAREAALLGADARTPMFLLNRVSYDQDDVAIEQRRSLYRGDRMTFTAVMHAKNSAIVS yielded soluble on expression in E. coli of soluble
